These measurements were taken from patent US20190064177A1.

tested on: diaphorase; experiment: fluorescently labeled diaphorase binding to peptide array with or without excess FAD; conditions: ratio without/with FAD calculated from measured binding values, 1 micromolar diaphorase
REPORTED_METRIC: Meas. ratio

Past entries and their recorded results:
| CHAIN | Meas. ratio |
| --- | --- |
| VKDGNKHYWRVSGSG (VKDGANKHYWRVSGSG) [array peptide with C-terminal GSG linker] | 0.18 |
| WHLLGWVGYGGSG [array peptide with C-terminal GSG linker] | 0.70 |
| EGFGYLFAHVGGS | 0.78 |
| WRSVYVPNGGSG [array peptide with C-terminal GSG linker] | 2.35 |
| RWRYYWKSEGSG [array peptide with C-terminal GSG linker] | 2.70 |

a = AFNVWQYFEGGSG [array peptide with C-terminal GSG linker]
b = EDEGLSKFEGGSG [array peptide with C-terminal GSG linker]
*Q* Lower value of Meas. ratio belongs to which: a or b ? Write the label of whichever entry you select.
*A* b
(b: 0.13, a: 0.73)

A = NVSDLSQFYLSGSG [array peptide with C-terminal GSG linker]
B = PQKSNHFHEAQKR
*Q* Consider A and B . Which of these has its Meas. ratio at a higher number? API: response body contains the label of the selected item.
*A* B
